- tested_system: human recombinant HDAC6 (Homo sapiens, UniProt Q9UBN7)
- Construct: purchased Calbiochem 382180
- Sequence (Q9UBN7 whole entry): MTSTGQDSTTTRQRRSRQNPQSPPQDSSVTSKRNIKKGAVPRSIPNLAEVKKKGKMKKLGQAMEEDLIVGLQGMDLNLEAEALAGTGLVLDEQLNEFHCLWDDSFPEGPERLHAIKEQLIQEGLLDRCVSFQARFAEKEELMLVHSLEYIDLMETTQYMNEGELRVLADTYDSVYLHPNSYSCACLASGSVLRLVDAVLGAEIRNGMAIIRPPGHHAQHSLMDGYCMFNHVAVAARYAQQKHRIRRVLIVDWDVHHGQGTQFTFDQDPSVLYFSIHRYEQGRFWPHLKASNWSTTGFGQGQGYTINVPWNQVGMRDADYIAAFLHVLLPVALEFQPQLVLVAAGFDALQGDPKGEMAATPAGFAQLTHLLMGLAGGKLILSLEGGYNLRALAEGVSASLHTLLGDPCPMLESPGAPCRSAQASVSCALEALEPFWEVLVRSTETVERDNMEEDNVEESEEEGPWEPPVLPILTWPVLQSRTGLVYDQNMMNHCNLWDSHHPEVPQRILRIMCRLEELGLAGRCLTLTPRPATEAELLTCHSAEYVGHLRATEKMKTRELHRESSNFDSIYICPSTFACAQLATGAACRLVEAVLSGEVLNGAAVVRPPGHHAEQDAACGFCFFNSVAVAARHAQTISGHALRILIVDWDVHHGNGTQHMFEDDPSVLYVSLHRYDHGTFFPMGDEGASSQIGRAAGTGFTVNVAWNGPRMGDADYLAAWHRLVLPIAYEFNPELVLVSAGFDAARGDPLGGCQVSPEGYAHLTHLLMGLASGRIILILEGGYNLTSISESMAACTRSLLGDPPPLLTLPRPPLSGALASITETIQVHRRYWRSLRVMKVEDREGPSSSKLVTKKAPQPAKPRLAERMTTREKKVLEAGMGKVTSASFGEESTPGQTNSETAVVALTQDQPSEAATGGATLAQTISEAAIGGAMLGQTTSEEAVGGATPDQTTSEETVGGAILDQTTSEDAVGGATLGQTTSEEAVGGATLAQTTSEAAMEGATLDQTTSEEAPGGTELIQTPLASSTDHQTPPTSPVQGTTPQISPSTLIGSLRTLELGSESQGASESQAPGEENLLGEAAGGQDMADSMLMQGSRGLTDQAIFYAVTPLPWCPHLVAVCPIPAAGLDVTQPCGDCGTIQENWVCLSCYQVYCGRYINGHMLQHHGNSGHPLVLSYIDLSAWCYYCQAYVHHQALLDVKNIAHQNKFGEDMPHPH
- protocol_description: HDAC6 enzyme activity inhibition assay (in vitro, fluorimetric)
- Format: biochemical
- condition_set: HDAC6 selectivity over HDAC1
Assignment: determine reported HDAC6 selectivity (fold) for the given molecules.
Respond numerically; units are fold and should not be typed.

// map C[C@@H]1CN(Cc2ccc(C(=O)NO)cc2)C[C@H](C)N1Cc1ccccc1C1=CCN(CC(F)(F)F)CC1 to recorded HDAC6 selectivity (fold) (system: human recombinant HDAC6 (Homo sapiens, UniProt Q9UBN7))
166

Field entry: C[C@@H]1CN(C(=O)c2ccc(CC(=O)NO)cc2)C[C@H](C)N1Cc1ccccc1
66

Field entry: C[C@@H]1CN(Cc2ccc(C(=O)NO)cc2)C[C@H](C)N1C(=O)c1ccccc1C1=CCC(C)(C)CC1
33

Field entry: C[C@@H]1CN(Cc2ccc(-n3cnnc3)cc2)C[C@H](C)N1Cc1ccc(C(=O)NO)cc1
8
